assay summary: NCI Yeast Anticancer Drug Screen. Data for the bub3 strain (AID 167)
condition notes: S. cerevisiae bub3 mutant strain, at 50.0 µM, active compounds read high
About 79,000 compounds went through this panel and 15% of them were active in at least one assay; those are over-represented in the sample as a whole. Calls of active or inactive are those of the source. No stated cut-off is given here; in the data, active means growth inhibition above about 70%; inactive means the rest.
readout kind: growth inhibition

For orientation, consider the following solved cases.
| molecule | growth inhibition |
| --- | --- |
| COc1cc(C(=O)CBr)c2ccc(Cl)cc2n1 | 70.3% (active) |
| Cc1[nH]c2ccccc2c1C1=CC2(C)Nc3ccccc3C2C(C)(C)C1 (stereo not given) | 94.8% (active) |
| COc1ccc(/C=C2\CCC(CN3CCOCC3)C2=O)cc1 (stereo not given) | 92.7% (active) |
| CCCOC(=O)COc1ccccc1C(=O)OCCC | 23.2% (inactive) |
| N#Cc1sc2c(c1OC(=O)c1ccc(Cl)cc1)c(=O)n(-c1ccccc1)c(=S)n2-c1ccccc1 | 4.95% (inactive) |
| Cc1nn(CCO)c(=O)c(C#N)c1C | 34.1% (inactive) |
| COc1ccc2c(c1)CCc1c(CO)c(COC(=O)NC(C)C)n(C)c1-2 | 79.3% (active) |
| CC(=O)NNc1ccc(Cl)cc1[N+](=O)[O-] | 77.3% (active) |
| O=c1[nH]c(C(F)(F)F)c(F)c(=O)[nH]1 | 63.1% (inactive) |
| C/C(=N\NC(=S)N(C)C)c1cccc(C)n1 | 99.3% (active) |

Hi, could you look up growth inhibition for each item in my list?
1. CNC(=O)OCc1c(COC(=O)NC)c2n(c1C)-c1ccccc1CCC2
2. CCC/C(C)=N/NC(=S)SC

1: 87.5% (active); 2: 96.7% (active)

====

assay summary: NCI Yeast Anticancer Drug Screen. Data for the mlh1 rad18 strain (AID 175)
condition notes: S. cerevisiae mlh1 rad18 strain growth inhibition; at 50.0 µM (retest, dose inferred, filed as 5.0)
Method: Growth inhibition of yeast strains with defined genetic alterations is measured as a screen for potential anti-cancer activity. Selected strains with alterations in DNA damage repair or cell cycle control were exposed to compounds and growth inhibition was measured relative to vehicle treated controls. The strain used in this assay is mlh1 rad18
The panel holds about 79,000 compounds, 15% with a hit somewhere; the sample as a whole holds those more often. Activity calls are given as the source filed them. No stated cut-off is given here; in the data, active means growth inhibition above about 70%; inactive means the rest.
Response enum: active, inactive

Example entries and their recorded answers appear below.
| compound | classification |
| --- | --- |
| NCCNC[Si](c1ccccc1)(c1ccccc1)c1ccccc1 | active |
| CCCCC(CC)(COC(C)=O)COC(C)=O | inactive |
| CN(C)Cc1cc(N=Nc2ccc(Cl)c(Cl)c2)ccc1O | inactive |
| O=C1c2cccc(O)c2C(=O)c2c(OC3OC(CO)C(O)C(O)C3O)cccc21 (stereo not given) | inactive |
| CC(/C=C1\C(=O)N(C)C(CC(C)C(Cl)(Cl)Cl)C(=O)N1C)C(Cl)(Cl)Cl (stereo not given) | active |
| O=C(O)c1ccccc1C1c2ccccc2Oc2ccccc21 | inactive |

Would you mind telling me which call this test gave CCC1CN2CCc3cc(OC)c(OC)cc3C2CC1CC1c2cc(OC)c(OC)cc2CCN1C(=O)C(Cc1c[nH]c2ccccc12)NC(=O)OC(C)(C)C (stereo not given) ?
active

State the result this test recorded for CC(=O)OC1CCC2(C)C(=CCC3C2CCC2(C)C3CC(C(N)=O)C2C(C)=O)C1 (stereo not given) .
active

Assay result, entry "Cc1cc(Cc2ccccc2Cl)ccc1O" — outcome?
active

====

assay summary: NCI Yeast Anticancer Drug Screen. Data for the cln2 rad14 strain (AID 165);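 further: 0% = growth equal to vehicle treated cultures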
condition notes: S. cerevisiae cln2 rad14 strain, at 5.0 µM (retest, dose inferred, filed as 0.5), active compounds read high
This is part of a sample that, as a whole, favours compounds with a hit. Of some 79,000 tested, about 15% had one in any assay.
I'd appreciate it if you could supply growth inhibition values for the items below.
One number for each entry, in %.

Guide cases for growth inhibition, answers given:
| line notation | growth inhibition [%] |
| --- | --- |
| Cc1c(O)c(Br)c(Br)c(Br)c1Br | 93 |
| O=C1CN=C(c2ccccc2)N(c2ccccc2)N1 | 2 |
| N=c1n(CC(=O)NC23CC4CC(CC(C4)C2)C3)c2ccccc2n1CC(=O)NC12CC3CC(CC(C3)C1)C2 | -14 |

# context switch: different compound, same growth inhibition
Fill in: growth inhibition of "O=C(Nc1ccccc1Cl)c1ccc(Cl)c(Cl)c1" is ___
2

====

assay summary: NCI Yeast Anticancer Drug Screen. Data for the rad50 strain (AID 155);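 further: 0% = growth of vehicle-only cultures of the same strain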
condition notes: S. cerevisiae rad50 strain growth inhibition; at 50.0 µM (retest, dose inferred, filed as 5.0); active compounds read high
This is part of a sample that, as a whole, favours compounds with a hit. Of some 79,000 tested, about 15% had one in any assay.
readout kind: growth inhibition (%)
Answers are plain numbers, in %.

| compound | readout kind | result value |
| --- | --- | --- |
| COC(=O)c1ccc(NCc2c(O)ccc(O)c2Br)cc1Cl | growth inhibition | 99 |

Report growth inhibition for each item below.
1. CC/C(=C(\CC)c1ccc(O)c(CN(CCO)CCO)c1)c1ccc(O)cc1
2. S=c1n(-c2ccc(Cl)cc2)c2nc3ccccc3nc(/c2=N\Nc2cc(Cl)ccc2Cl)n1-c1ccc(Br)cc1
3. CCCn1c(=O)c2ccccc2[n+]2c(-c3ccc([N+](=O)[O-])cc3)csc12
4. COC(=O)c1nnn(-c2ccc(Cl)cc2Cl)c1C(=O)c1ccc(Cl)c(Cl)c1

1: 11; 2: 16; 3: 91; 4: 99

====

assay summary: NCI Yeast Anticancer Drug Screen. Data for the cln2 rad14 strain (AID 165);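 further: 0% = growth equal to vehicle treated cultures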
condition notes: S. cerevisiae cln2 rad14 strain, at 5.0 µM (retest, dose inferred, filed as 0.5), active compounds read high
This is part of a sample that, as a whole, favours compounds with a hit. Of some 79,000 tested, about 15% had one in any assay.
Give measured growth inhibition for each item. Keep answers brief.
Answers are plain numbers, in %.

| compound | growth inhibition, % |
| --- | --- |
| [O-][n+]1c2c(cc3ccccc31)Cc1ccccc1-2 | 4 |
| C/C(=N\NC(=S)N(C)C)c1cccc(C)n1 | 89 |
| COc1ccc(C(c2ccccc2C(=O)O)c2ccc(OC)c3ccccc23)c2ccccc12 | 96 |
| Oc1cc2c(cc1C(c1ccc(Cl)cc1)N1CCOCC1)OCO2 (stereo unspecified) | -8 |

Please state, for each entry, its recorded growth inhibition.
1. N#CC1(C#N)C(C#N)(C#N)C12CCCCCC2
2. O=C1c2ccccc2C(=O)c2sc(Nc3cc(Cl)ccc3Cl)nc21
3. Cn1c(Sc2ccc(-c3cccnc3)n2C)ccc1-c1cccnc1
4. COc1ccc(-c2cc(C(=O)O)c3cccc(C(F)(F)F)c3n2)cc1
5. C=CC[C@]1(C(C)Cc2ccc(OC)c(OC)c2)C[C@@H](OC)C=CC1=O (stereo partly specified)
6. CC1=C(C(=O)NCc2ccccc2)C(c2ccccc2[N+](=O)[O-])C(C(=O)NCc2ccccc2)=C(C)N1

13
52
-15
22
13
-4

Fill in the blank: the reported growth inhibition of "S=C(Nc1ccccc1)SCc1ccc(Cl)cc1" is ____.
-6

====

assay summary: NCI Yeast Anticancer Drug Screen. Data for the rad50 strain (AID 155);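 further: 0% = growth of vehicle-only cultures of the same strain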
condition notes: S. cerevisiae rad50 strain growth inhibition; at 5.0 µM (retest, dose inferred, filed as 0.5)
The panel holds about 79,000 compounds, 15% with a hit somewhere; the sample as a whole holds those more often. Calls of active or inactive are those of the source. Cut-off read from the data, not from the text of the source: active = growth inhibition above about 70%; inactive = the rest.
Returns: one label drawn from active, inactive

Look over these answered cases.
| molecule | classification |
| --- | --- |
| CC(C)(O)[C@H](CCO)O[Si](c1ccccc1)(c1ccccc1)C(C)(C)C | inactive |
| O=P1(O)c2ccccc2CS(=O)(=O)Cc2ccccc21 | inactive |
| O=C(O)Cc1cc(I)c(Oc2ccc(O)c(I)c2)c(I)c1 | inactive |
| COc1ccc(-c2c(C#N)cc(OC)c(OC)c2OC)c(C=O)c1 | inactive |
| O=C1c2ccccc2C(=O)c2sc(Nc3cc(Cl)ccc3Cl)nc21 | inactive |

Record lookup: outcome of this test for C=C1CCCCC1C(C(=O)O)(c1ccccc1)c1ccccc1 (stereo unspecified) ?
active

====

assay summary: NCI Yeast Anticancer Drug Screen. Data for the rad50 strain (AID 155);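 further: 0% = growth of vehicle-only cultures of the same strain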
condition notes: S. cerevisiae rad50 strain growth inhibition; at 5.0 µM (retest, dose inferred, filed as 0.5)
Compounds without any hit were thinned out: in the full panel of roughly 79,000, 15% have a hit. Calls of active or inactive are those of the source. Cut-off read from the data, not from the text of the source: active = growth inhibition above about 70%; inactive = the rest.
Allowed answers: t = active, f = inactive

Please review the entries below; each comes with its answer.
| molecule | classification |
| --- | --- |
| CC/C(=N\OC(=O)Nc1ccccc1)c1ccc(OC(=O)Nc2ccccc2)cc1 | f |
| O=[N+]([O-])/C(C(Cl)=C(Cl)Cl)=C(/Cl)SCc1ccccc1 | t |
| Cc1ccccc1Sc1ccccc1[N+](=O)[O-] | f |
| COc1ccc(C2C(C#N)(C#N)C2(C#N)C#N)cc1 | f |
| COc1ccc2c(c1)C(O)=C(CC=C(C)C)C(=O)C2=O | f |

Assay result, entry "COc1ccc(OC)c2c1C=CC(Br)=CC2" — outcome?
f

Per the records of this test, what outcome belongs to "CN1CCN(CCCCN2c3ccccc3Sc3ccc(C(=O)c4ccccc4)cc32)CC1" ?
f

Answer briefly: the call reported for CC1CCC(=NNC(N)=O)CC1 (stereo unspecified) in this assay.
f

Assay result, entry O=C(OC1C2CCC2C2CC21)c1ccc([N+](=O)[O-])cc1[N+](=O)[O-] (stereo unspecified) — outcome?
f

Call for entry "Cc1cc(=O)c2cc(N=Cc3ccc([N+](=O)[O-])o3)ccc2o1" :
f

How did this test come out for "CNc1nc(N)nc(N(C)c2ccc(Br)cc2)c1N=O" ?
f
